Sourced from the supplement of paper PMC11451515

System: SEM cells
Assay: cell viability relative to DMSO control; higher = less cytotoxic
Conditions: RPMI 5 mM glucose + 10% FBS; 48 h; 15.4 µM
Measured Attribute: cell viability (%)
Report only the number, with the unit % understood.

Example entries and their recorded answers appear below.
| Compound | Measured Attribute | Units | Endpoint Result |
| --- | --- | --- | --- |
| CN(C)CCOC(c1ccccc1)c1ccccc1 | cell viability | % | 116 |
| C[C@H]1CN(C[C@@H](C)O1)CC(=O)NC2=CC=C3SC4=C(CC3=C2)C=CC=C4\C5=C\C(=O)\C=C(/O5)N6CCOCC6 | cell viability | % | 44.1 |
| C=C(C)[C@@H]1CC[C@]2(C)CC[C@]3(C)[C@H](CC[C@@H]4[C@@]5(C)CC[C@H](O)C(C)(C)[C@@H]5CC[C@]43C)[C@@H]12 | cell viability | % | 126 |
| Fc1cc(-c2cccc3ncc(-c4cnn(C5CCNCC5)c4)nc23)cc(F)c1CN1CCOCC1 | cell viability | % | 25.7 |
| COc1cc2nccc(Oc3ccc(NC(=O)Nc4ccc(F)cc4F)c(F)c3)c2cc1OC | cell viability | % | 53.6 |
| O=C1Nc2ccccc2/C1=C1\Nc2ccccc2C1=O | cell viability | % | 78.4 |
| COc1ccc(Cc2nccc3cc(OC)c(OC)cc23)cc1OC | cell viability | % | 110 |
| COCCOC(=O)C/1=C(C)/NC/2=C(C1C3=CC=CC(=C3)O)/C(=O)CC(C2)C4=C(OC)C=CC=C4 (configuration not stated) | cell viability | % | 45.6 |

q: Report cell viability for CCCCCCCCCCCC(CC1OC(=O)C1CCCCCC)OC(=O)C(CC(C)C)NC=O (configuration not stated) please.
a: 24.9

q: Same read-out for COc1cc2nccc(Oc3ccc(NC(=O)Nc4cc(C)on4)c(Cl)c3)c2cc1OC ?
a: 31.3

q: Do the same for CCOC(=O)C/1=C(C)/NC(=S)NC1C2=CC=CC(=C2)O (configuration not stated) please
a: 7.56

q: Can you check COc1cc2ncnc(-n3nc(-c4ccccn4)nc3N)c2cc1OC next?
a: 1.61

q: Proceed to CC(=O)N1CCN(c2ccc(OCc3nn(C)c(C)c3-c3cccc4c(CCCOc5cc(C)c(Cl)c(C)c5)c(C(=O)O)n(Cc5cccnc5)c34)cc2)CC1
a: 54

q: Query COC(=O)N1CCN(Cc2cccc(NC(=O)Nc3ccc(C)nc3)c2F)CC1 next
a: 108

q: Cool, now CN(N=O)C(=O)N[C@H]1C(O)OC(CO)[C@@H](O)[C@@H]1O (some centres not stated)
a: 48.3

q: Next entry: CC[C@]1(O)C[C@H]2CN(CCC3=C([NH]C4=C3C=CC=C4)[C@@](C2)(C(=O)OC)C5=CC6=C(C=C5OC)N(C=O)[C@H]7[C@](O)([C@H](OC(C)=O)[C@]8(CC)\C=C/C[N@@]9CC[C@]67[C@H]89)C(=O)OC)C1
a: 3.51

q: Now this one: CCC(=O)O[C@@]1([C@@H](C)C[C@H]2[C@@H]3CCC/4=C/C(=O)/C=C\[C@]4(C)[C@@]3(F)[C@@H](O)C[C@]12C)C(=O)CCl
a: 56

----------
System: NOMO1
Test: cell viability relative to DMSO control; higher = less cytotoxic
Details: RPMI 5 mM glucose + 10% dialyzed FBS; 48 h; 0.0211 µM
cell viability listing for selected compounds.
Write the value in % as a bare number.

Use these answered entries as a reference point.
| Compound | Endpoint Result |
| --- | --- |
| COC[C@H](NC(=O)c1cnc(C)s1)C(=O)N[C@@H](COC)C(=O)N[C@@H](Cc1ccccc1)C(=O)[C@@]1(C)CO1 | 96.7 |
| COCCOC(=O)C/1=C(C)/NC/2=C(C1C3=CC=CC(=C3)O)/C(=O)CC(C2)C4=C(OC)C=CC=C4 (centres undefined) | 99.6 |

q: Checklist item: cell viability tested on NOMO1, entry CO/N=C(/C(=O)N[C@@H]1C(=O)N2C(C(=O)O)=C(Cn3ccc(=N)n3CCO)CS[C@H]12)c1csc(N)n1 , value?
a: 133

q: Queued: Cc1ccc(C(C)(O)c2nc3ccccc3s2)c(C)c1 (centres undefined)
a: 113

----------
Tested on: SEM cells
Experiment: cell viability relative to DMSO control; higher = less cytotoxic
Conditions: HPLM + 10% dialyzed FBS; 48 h; 5.12 µM
Measured Attribute: cell viability (%)
Field: numeric (%). Do not append units.

# count of solved cases: 3
| Compound | Endpoint Result |
| --- | --- |
| COC1=CC=C2Nc3cc(Cl)ccc3C(N=C3C=C(CN4CCCC4)C(=O)C(CN4CCCC4)=C3)=C2N1 | 117 |
| CN1CCCN(C(=O)c2cccc(-c3ccc(/C=C4/C(=O)Nc5ccc(Cl)cc54)o3)c2)CC1 | 48.4 |
| COc1cc(N2CCC(C(N)=O)CC2)ccc1Nc1nc(N)c(Cl)c(Nc2ccccc2[S+](=O)([O-])C(C)C)n1 | 66.5 |

q: Would you kindly share the measured cell viability for CCOC(=O)C/1=C(C)/NC(=S)NC1C2=CC=CC(=C2)O (centres undefined) ?
a: 7.01

----------
Tested on: NOMO1
Test: AUC of viability dose-response curve (% viability x log10 dose units); higher = less sensitive
Conditions: HPLM + 10% dialyzed FBS; 48 h
Measured Attribute: AUC of viability dose-response curve
Reply with the value as a number alone.

Examples with answers:
| Compound | Measurement Target | AUC of viability dose-response curve |
| --- | --- | --- |
| CC[C@]1(O)C[C@H]2CN(CCC3=C([NH]C4=C3C=CC=C4)[C@@](C2)(C(=O)OC)C5=CC6=C(C=C5OC)N(C=O)[C@H]7[C@](O)([C@H](OC(C)=O)[C@]8(CC)\C=C/C[N@@]9CC[C@]67[C@H]89)C(=O)OC)C1 | NOMO1 | 272 |
| COc1ccc(/C=C\c2cc(OC)c(OC)c(OC)c2)cc1O | NOMO1 | 197 |
| COc1cc2c(Nc3ccc(NC(=O)c4ccccc4)cc3)ncnc2cc1OCCCN1CCOCC1 | NOMO1 | 456 |
| CSC1=CC(=CC=C1)NC2=NC3=C(C=N2)/C=C(C(=O)N3C)/C4=C(Cl)C=CC=C4Cl | NOMO1 | 467 |
| CCCCN(CCCC)CCC(O)c1cc2c(Cl)cc(Cl)cc2c2cc(C(F)(F)F)ccc12 (stereo not drawn) | NOMO1 | 453 |

q: Report AUC of viability dose-response curve for NC(=O)c1cccc(-c2cccc(OC(=O)NC3CCCCC3)c2)c1 please.
a: 461

q: Another compound: ClC1=CC=C(CCCOC/2=N/NC(=O)C(=C2NCC3=CN=CC=C3)/Br)C=C1
a: 344

q: And CCOC(=O)Nc1ccc(NCc2ccc(F)cc2)cc1N ?
a: 424

----------
Test system: NOMO1
Experiment: cell viability relative to DMSO control; higher = less cytotoxic
Settings: RPMI 5 mM glucose + 10% dialyzed FBS; 48 h; 0.000781 µM
Recorded cell viability, one value per entry.
Quick note: number first, unit second.

Here's what some known entries look like.
| Smiles Code | Endpoint Result |
| --- | --- |
| C[C@H]1CN(C[C@@H](C)O1)CC(=O)NC2=CC=C3SC4=C(CC3=C2)C=CC=C4\C5=C\C(=O)\C=C(/O5)N6CCOCC6 | 85% |
| COc1nc(-c2ccc3c(c2)OCO3)n(-c2ccc(NC(=O)CSc3ccccc3)cc2)n1 | 102% |
| COc1cc(N2CCC(O)CC2)ccc1Nc1cc(Nc2ccccc2[S+](=O)([O-])C(C)C)c2cc[nH]c2n1 | 90.4% |

For the next question, use this compound.
q: Value lookup for cell viability; key = CNC(=O)[C@H](Cc1ccccc1)NC(=O)[C@H](CC(C)C)[C@H](CSc1cccs1)C(=O)NO
a: 78.9%

----------
System: SEM cells
Assay: cell viability relative to DMSO control; higher = less cytotoxic
Details: HPLM + 10% dialyzed FBS; 48 h; 15.4 µM
The label is Condition met for cell viability below 70% and Condition not met for cell viability equal to or exceeding 70%.

Reference set, count: 6
| Smiles Code | Measurement Target | Class Label |
| --- | --- | --- |
| CNC(=O)c1cccc(-c2ccc3c(N4CCOC[C@@H]4C)nc(N4CCOC[C@@H]4C)nc3n2)c1 | SEM cells | Condition met |
| Cn1c2ccccc2c2c3c(c4c5ccccc5n(CCC#N)c4c21)CNC3=O | SEM cells | Condition met |
| CO/N=C(/C(=O)N[C@@H]1C(=O)N2C(C(=O)O)=C(Cn3ccc(=N)n3CCO)CS[C@H]12)c1csc(N)n1 | SEM cells | Condition not met |
| CC(C)OC(=O)CCC/C=C\C[C@@H]1[C@@H](/C=C/[C@@H](O)COc2cccc(C(F)(F)F)c2)[C@H](O)C[C@@H]1O | SEM cells | Condition not met |
| CN[C@H](CC(C)C)C(=O)N[C@H]1C(=O)N[C@@H](CC(N)=O)C(=O)N[C@H]2C(=O)N[C@H]3C(=O)N[C@H](C(=O)N[C@H](C(=O)O)c4cc(O)cc(O)c4-c4cc3ccc4O)[C@H](O)c3ccc(c(Cl)c3)Oc3cc2cc(c3O[C@@H]2O[C@H](CO)[C@@H](O)[C@H](O)[C@H]2O[C@H]2C[C@](C)(N)[C@H](O)[C@H](C)O2)Oc2ccc(cc2Cl)[C@H]1O | SEM cells | Condition not met |
| CCC(=O)O[C@@]1([C@@H](C)C[C@H]2[C@@H]3CCC/4=C/C(=O)/C=C\[C@]4(C)[C@@]3(F)[C@@H](O)C[C@]12C)C(=O)CCl | SEM cells | Condition met |

q: cell viability under 70%? Item: C[C@]\1(CCS\C(=N1)N)C2=CC(=C(F)C=C2F)C3=CN=CN=C3
a: Condition not met

q: What do you get for CNC(=O)[C@H](Cc1ccccc1)NC(=O)[C@H](CC(C)C)[C@H](CSc1cccs1)C(=O)NO ?
a: Condition met

q: And then Cc1ccc(NC(=O)c2ccc(CN3CCN(C)CC3)cc2)cc1Nc1nccc(-c2cccnc2)n1 , what is it?
a: Condition not met

q: Same question, C[C@@H](c1ncncc1F)[C@](O)(Cn1cncn1)c1ccc(F)cc1F this time
a: Condition not met
